Just for reference, patent US20070244048A1 is where these values come from.

Biological target: T1, mouse NMUR1-ATG (mouse, UniProt O55040 1-428)
T1 sequence (looked up): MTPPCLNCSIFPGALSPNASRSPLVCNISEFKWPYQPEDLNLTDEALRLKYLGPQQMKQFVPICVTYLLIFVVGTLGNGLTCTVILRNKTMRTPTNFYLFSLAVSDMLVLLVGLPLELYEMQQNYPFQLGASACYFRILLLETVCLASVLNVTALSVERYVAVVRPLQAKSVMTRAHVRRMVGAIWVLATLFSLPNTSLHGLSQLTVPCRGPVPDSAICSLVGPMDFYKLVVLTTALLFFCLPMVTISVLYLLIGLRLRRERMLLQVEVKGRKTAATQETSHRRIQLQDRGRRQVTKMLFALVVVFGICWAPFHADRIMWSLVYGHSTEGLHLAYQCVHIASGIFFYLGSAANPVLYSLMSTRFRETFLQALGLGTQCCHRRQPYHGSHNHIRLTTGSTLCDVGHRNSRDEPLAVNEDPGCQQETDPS
Experiment: cell-based or functional assay
Non-standard residues stand in square brackets, D forms with d. *: point of attachment. (PEG)2 40 kDa = branched PEG of 40 kDa linked via the Cys side-chain thiol (code C2 = Cys(PEG)2 40 kDa); Succinimide(1-Et,3-yl) = CCN1C(=O)CC(*)C1=O; Palmitoyl = CCCCCCCCCCCCCCCC(=O)*
measurement type: % Activity (FLIPR) (%)
Numbers only; they are read as %.

Input: Fill in the blank: the reported % Activity (FLIPR) of Ac-C(Succinimide(1-Et,3-yl))GYFLFRPRN-NH2 (SMILES CCN1C(=O)CC(SC[C@H](NC(C)=O)C(=O)NCC(=O)N[C@@H](Cc2ccc(O)cc2)C(=O)N[C@@H](Cc2ccccc2)C(=O)N[C@@H](CC(C)C)C(=O)N[C@@H](Cc2ccccc2)C(=O)N[C@@H](CCCNC(=N)N)C(=O)N2CCC[C@H]2C(=O)N[C@@H](CCCNC(=N)N)C(=O)N[C@@H](CC(N)=O)C(N)=O)C1=O) [NMU6] is ____.
Output: 100

Input: Fill in the blank: the reported % Activity (FLIPR) of Ac-C(PEG 20 kDa)C(PEG 20 kDa)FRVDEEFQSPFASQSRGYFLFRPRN-NH2 [NMU23] is ____.
Output: 100

Input: Fill in the blank: the reported % Activity (FLIPR) of Ac-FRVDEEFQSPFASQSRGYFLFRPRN-NH2 [NMU2] is ____.
Output: 100

Input: Fill in the blank: the reported % Activity (FLIPR) of Ac-C((PEG)2 40 kDa)FRVDEEFQSPFASQSRGYF[dA]WRPRN-NH2 [NMU14] is ____.
Output: 60.8

Input: Fill in the blank: the reported % Activity (FLIPR) of Ac-C((PEG)2 40 kDa)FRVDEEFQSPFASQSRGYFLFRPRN-NH2 [NMU9] is ____.
Output: 95

Input: Fill in the blank: the reported % Activity (FLIPR) of Palmitoyl-C((PEG)2 40 kDa)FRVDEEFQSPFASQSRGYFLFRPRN-NH2 [NMU25] is ____.
Output: 100

Input: Fill in the blank: the reported % Activity (FLIPR) of Ac-C((PEG)2 40 kDa)ASQSRGYFLFRPRN-NH2 [NMU18] is ____.
Output: 100
